All values here come from ChEMBL document CHEMBL2331260.

- experiment: Intrinsic clearance in mouse liver microsomes measured per mg of protein
- Type: ADME, Microsome
- particulars: read-out: CLH
measured_endpoint: microsomal CLint (µL/min/mg)

compound | obs_value
CC(C)(C)C(=O)NCCC1CCN(c2ncnc3cc(C(N)=O)sc23)CC1 | 12.7

* * *

- assayed_target: NAD-dependent protein deacetylase sirtuin-3, mitochondrial (Homo sapiens, UniProt Q9NTG7)
- Sequence (Q9NTG7 whole entry): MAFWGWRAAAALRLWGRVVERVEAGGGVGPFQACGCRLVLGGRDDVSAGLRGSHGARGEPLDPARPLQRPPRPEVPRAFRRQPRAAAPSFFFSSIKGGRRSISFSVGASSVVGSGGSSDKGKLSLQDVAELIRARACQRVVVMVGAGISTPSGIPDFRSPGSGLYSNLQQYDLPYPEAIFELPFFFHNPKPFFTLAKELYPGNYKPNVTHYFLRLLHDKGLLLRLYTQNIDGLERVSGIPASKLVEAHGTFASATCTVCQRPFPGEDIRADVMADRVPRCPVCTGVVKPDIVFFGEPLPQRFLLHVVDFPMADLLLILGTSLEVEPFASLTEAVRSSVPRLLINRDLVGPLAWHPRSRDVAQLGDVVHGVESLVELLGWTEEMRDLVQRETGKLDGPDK
- experiment: Inhibition of human His-tagged SIRT3 (102 to 399) expressed in Escherichia coli BL21(DE3) assessed as inhibition of deacetylation of Ac-RHKKAcW-NH2 substrate preincubated for 20 mins measured after 30 mins by mass spectrophotometric analysis
pIC50: −log10 of the molar value.

compound | pIC50
CCNC(=O)c1cccc(C(=O)NCCC2CCN(c3ncnc4cc(C(N)=O)sc34)CC2)c1 | 8.31
